- Test system: HT29
Please provide measured GI50 for the entries that follow.
Give bare numbers, in µM.

The cases that follow already have their GI50 on record.
INSERT INTO results (compound, quantitative_result) VALUES
  ('COc1cc(Nc2ncccc2C(=O)NCc2cn(Cc3cccc(Oc4ccccc4)c3)nn2)cc(OC)c1 [Compound 1i]', 3.88),
  ('O=C(NCc1cn(Cc2cccc(Oc3ccccc3)c2)nn1)c1cccnc1Nc1ccc(F)cc1 [Compound 1b]', 5.6);

I have 2 compounds here; please give me GI50 for each one.
1. O=C(NCc1cn(Cc2cccc(Oc3ccccc3)c2)nn1)c1cccnc1Nc1ccccc1 [Compound 1a]
2. COc1ccc(Nc2ncccc2C(=O)NCc2cn(Cc3cccc(Oc4ccccc4)c3)nn2)cc1 [Compound 1e]

1: 3.65; 2: 3.66

I have 2 compounds here; please give me GI50 for each one.
1. O=C(NCc1cn(Cc2cccc(Oc3ccccc3)c2)nn1)c1cccnc1NCc1ccc(Cl)cc1 [Compound 1k]
2. COc1ccc(Nc2ncccc2C(=O)NCc2cn(Cc3cccc(Oc4ccccc4)c3)nn2)c(OC)c1 [Compound 1g]

1: 2.96; 2: 3.26
